# measured_on: D(3) dopamine receptor (Rattus norvegicus, UniProt P19020)
# Sequence (P19020 whole entry): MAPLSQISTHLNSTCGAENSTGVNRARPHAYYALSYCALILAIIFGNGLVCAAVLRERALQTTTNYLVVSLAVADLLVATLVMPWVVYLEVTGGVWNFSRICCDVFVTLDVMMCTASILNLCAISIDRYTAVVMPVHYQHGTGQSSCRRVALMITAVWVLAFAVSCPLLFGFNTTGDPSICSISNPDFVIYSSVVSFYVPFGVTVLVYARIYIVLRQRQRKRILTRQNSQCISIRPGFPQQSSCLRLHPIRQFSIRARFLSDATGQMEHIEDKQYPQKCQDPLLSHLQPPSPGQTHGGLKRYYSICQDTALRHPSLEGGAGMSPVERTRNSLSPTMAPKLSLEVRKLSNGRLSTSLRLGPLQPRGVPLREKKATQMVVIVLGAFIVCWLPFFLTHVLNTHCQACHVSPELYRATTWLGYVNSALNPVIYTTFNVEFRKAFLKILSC
# measurement_protocol: biochemical
Kindly state Ki for each of the entries shown.
Give bare numbers, in nM.

O=C(NCCCCN1CCN(c2cccc(Cl)c2Cl)CC1)c1ccc2c(c1)Cc1ccccc1-2 :: 1.4

Could you tell me Ki for each of these molecules? They are listed below.
1. COc1cc(Br)cc(-c2ccc(CN3CCc4ccccc4C3)[nH]2)c1OC
2. COc1c(C(=O)NCCN2CCN(c3cccc(Cl)c3Cl)CC2)cc(Br)c2ccccc12

Reply text:
[3.8, 8]

###

# measured_on: D(2) dopamine receptor (Rattus norvegicus, UniProt P61169)
# Sequence (P61169 whole entry): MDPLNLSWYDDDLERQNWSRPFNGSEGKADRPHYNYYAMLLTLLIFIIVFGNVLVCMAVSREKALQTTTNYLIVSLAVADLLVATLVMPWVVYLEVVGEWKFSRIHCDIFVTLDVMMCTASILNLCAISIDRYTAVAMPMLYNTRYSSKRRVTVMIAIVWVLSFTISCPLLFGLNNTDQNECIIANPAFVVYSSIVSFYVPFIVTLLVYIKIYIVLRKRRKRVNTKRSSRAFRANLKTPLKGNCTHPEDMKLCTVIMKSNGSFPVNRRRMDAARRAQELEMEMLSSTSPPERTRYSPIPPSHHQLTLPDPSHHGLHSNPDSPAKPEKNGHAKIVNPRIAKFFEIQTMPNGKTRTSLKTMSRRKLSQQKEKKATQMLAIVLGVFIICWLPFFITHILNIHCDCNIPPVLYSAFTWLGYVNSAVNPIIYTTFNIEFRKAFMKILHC
metric: Ki (µM)
Numbers only, in µM.

Inquiry: Requested read-out Ki, target or system D(2) dopamine receptor (Rattus norvegicus, UniProt P61169), entry COc1cc(Br)cc(-c2ccc(CN3CCc4ccccc4C3)[nH]2)c1OC
Reply text: 0.03

###

# measured_on: Sigma 2 receptor
Category scheme (Ki): low end (below 0.02 µM), middle (0.02 µM to below 0.07 µM), high end (0.07 µM or more)

Below, 3 compounds whose answers are already recorded.
COc1cc2c(cc1OC)CN(CCNC(=O)c1cc(Br)c3ccccc3c1OC)CC2 :: middle
COc1c(C(=O)NCCN2CCc3ccccc3C2)cc(Br)c2ccccc12 :: middle
COc1cc(Br)cc(C(=O)NCCN2CCc3ccccc3C2)c1OC :: high end

Inquiry: Kindly state the category for this compound: COc1cc2c(cc1OC)CN(CCNC(=O)c1cc(Br)cc(OC)c1OC)CC2
Reply text: low end

Inquiry: Kindly state the category for this compound: COc1c(C(=O)NC[C@H]2CCCN2C2CCCCC2)cc(Br)c2ccccc12
Reply text: middle

Inquiry: Kindly state the category for this compound: COc1cc(Br)cc(C(=O)NCCCCN2CCN(c3cccc(Cl)c3Cl)CC2)c1OC
Reply text: high end

Inquiry: Kindly state the category for this compound: COc1ccc(Br)cc1C(=O)NCCN1CCc2ccccc2C1
Reply text: high end

Inquiry: Kindly state the category for this compound: COc1cc2c(cc1OC)CN(CCNC(=O)c1cc(Br)ccc1OC)CC2
Reply text: low end

Inquiry: Kindly state the category for this compound: COc1cc2c(cc1OC)CN(CCNC(=O)c1cc(C)ccc1OC)CC2
Reply text: low end

Inquiry: Kindly state the category for this compound: COc1cc2c(cc1OC)CN(CCCCNC(=O)c1cc(Br)cc(OC)c1OC)CC2
Reply text: low end

Inquiry: Kindly state the category for this compound: COc1cc2c(cc1OC)CN(CCCCNC(=O)c1cc(Br)c3ccccc3c1OC)CC2
Reply text: low end

Values from ChEMBL document CHEMBL1146691
